Quick reference for IC50 among some compounds
Target or system: mouse TRPM3a2 (mTRPM3) ion channel (Mus musculus, UniProt J9SQF3)
Construct: expressed in transfected cells; host or cells: flip-in HEK293
Sequence (J9SQF3 1-1709 isoform J9SQF3-12): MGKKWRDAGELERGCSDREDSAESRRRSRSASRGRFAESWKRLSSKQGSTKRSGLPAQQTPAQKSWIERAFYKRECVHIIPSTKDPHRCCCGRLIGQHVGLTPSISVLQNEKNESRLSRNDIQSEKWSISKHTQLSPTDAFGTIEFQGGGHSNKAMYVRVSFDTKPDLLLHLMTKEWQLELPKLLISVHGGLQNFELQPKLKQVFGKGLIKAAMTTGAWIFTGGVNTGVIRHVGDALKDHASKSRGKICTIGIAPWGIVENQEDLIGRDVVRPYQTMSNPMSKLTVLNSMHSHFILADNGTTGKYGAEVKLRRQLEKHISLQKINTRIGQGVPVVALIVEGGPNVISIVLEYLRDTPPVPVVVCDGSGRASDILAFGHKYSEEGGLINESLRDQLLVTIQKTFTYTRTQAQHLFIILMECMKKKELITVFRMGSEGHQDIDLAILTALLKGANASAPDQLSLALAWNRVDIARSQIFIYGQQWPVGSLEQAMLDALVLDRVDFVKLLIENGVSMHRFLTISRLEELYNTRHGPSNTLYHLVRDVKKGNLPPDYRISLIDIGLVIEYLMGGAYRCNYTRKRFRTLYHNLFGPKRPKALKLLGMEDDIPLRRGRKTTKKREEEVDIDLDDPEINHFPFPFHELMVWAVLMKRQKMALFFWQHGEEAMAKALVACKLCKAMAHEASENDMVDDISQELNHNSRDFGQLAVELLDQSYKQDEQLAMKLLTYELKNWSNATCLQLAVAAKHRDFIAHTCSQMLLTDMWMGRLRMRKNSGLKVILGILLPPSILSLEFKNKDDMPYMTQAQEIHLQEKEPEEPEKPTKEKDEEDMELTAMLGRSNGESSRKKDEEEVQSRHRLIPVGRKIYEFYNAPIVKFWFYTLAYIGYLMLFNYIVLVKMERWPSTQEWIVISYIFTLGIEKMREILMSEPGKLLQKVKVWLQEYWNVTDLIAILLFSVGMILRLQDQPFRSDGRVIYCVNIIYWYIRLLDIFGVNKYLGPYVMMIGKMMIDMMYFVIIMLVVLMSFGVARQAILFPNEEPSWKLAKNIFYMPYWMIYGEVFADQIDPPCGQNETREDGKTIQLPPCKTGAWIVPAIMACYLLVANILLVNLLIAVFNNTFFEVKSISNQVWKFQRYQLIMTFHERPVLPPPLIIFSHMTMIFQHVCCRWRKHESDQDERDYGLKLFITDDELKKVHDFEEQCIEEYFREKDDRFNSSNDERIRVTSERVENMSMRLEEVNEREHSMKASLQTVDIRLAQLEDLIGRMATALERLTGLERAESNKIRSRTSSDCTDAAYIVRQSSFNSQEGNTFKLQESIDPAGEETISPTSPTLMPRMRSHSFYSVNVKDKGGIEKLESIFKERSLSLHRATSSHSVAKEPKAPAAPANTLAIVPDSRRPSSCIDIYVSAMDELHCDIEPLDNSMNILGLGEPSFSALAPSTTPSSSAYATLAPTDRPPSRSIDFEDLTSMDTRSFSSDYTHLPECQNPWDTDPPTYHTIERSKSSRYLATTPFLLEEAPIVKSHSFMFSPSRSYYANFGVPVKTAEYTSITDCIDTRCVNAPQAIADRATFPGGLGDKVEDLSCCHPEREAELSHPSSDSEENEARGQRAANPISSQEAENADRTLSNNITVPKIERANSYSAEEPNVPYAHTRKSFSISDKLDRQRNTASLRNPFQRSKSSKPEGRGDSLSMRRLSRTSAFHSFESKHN
Procedure details: TRPM3 ion channel driven Ca2+ uptake, Fluo-4 AM assay (PS-stimulated, overexpressing flip-in HEK293 cells)
Type: cell-based
Measurement context: PS (50 μM) stimulated, cpds. 600-666
Description: In order to monitor the inhibition of the mouse TRPM3a2 (mTRPM3) ion channel by the compounds of the invention, a cellular system making use of an mTRPM3alpha2 or hTRPM3 overexpressing cell line (flip-in HEK293) was used. […] For mTRPM3, the intracellular Ca^2+ was measured with a Calcium responsive dye, Fluor-4 AM ester (Invitrogen). […] Channel inhibition was calculated compared to a non-PS stimulated control versus a condition stimulated with PS (50 μM) with vehicle. […]

Solved cases (5 shown):
{"Compound": "Cc1oc2ccc(OCc3ccnn3C)cc2c1C(=O)NC1COCC1O (single isomer, unassigned) [655 - En 1]", "Result": "≤ 1000 nM"}
{"Compound": "Cc1oc2ccc(OCc3ccnc(O)c3)cc2c1C(=O)NC1(CO)CCOCC1", "Result": "1000 to 20000 nM"}
{"Compound": "Cc1oc2ccc(OCc3nccn3C)cc2c1C(=O)NC1COCC1O (centres unmarked) [653 - En 1]", "Result": "1000 to 20000 nM"}
{"Compound": "Cc1oc2ccc(OCc3nccn3C)cc2c1C(=O)NC1COCC1O (centres unmarked) [654 - En 2]", "Result": "1000 to 20000 nM"}
{"Compound": "Cc1ncsc1COc1ccc2oc(C)c(C(=O)NC3(CO)CCOCC3)c2c1C", "Result": "1000 to 20000 nM"}

Qu. Give the reported value of IC50 for this record: Cc1oc2ccc(OCc3ncn(C)n3)cc2c1C(=O)NC1(CO)CCOCC1
Ans. 1000 to 20000 nM

Qu. Give the reported value of IC50 for this record: Cc1oc2ccc(OCc3cccn(C)c3=O)cc2c1C(=O)NC1(CO)CCOCC1
Ans. 1000 to 20000 nM

Qu. Give the reported value of IC50 for this record: Cc1oc2ccc(OCc3cncn3C)cc2c1C(=O)NC1(CO)CCOCC1
Ans. 1000 to 20000 nM

Qu. Give the reported value of IC50 for this record: Cc1csc(COc2ccc3oc(C)c(C(=O)NC4(CO)CCOCC4)c3c2)n1
Ans. 1000 to 20000 nM

Qu. Give the reported value of IC50 for this record: Cc1oc2ccc(OCc3ccnn3C)cc2c1C(=O)NC1COCC1O (single isomer, unassigned) [655 - En 2]
Ans. ≤ 1000 nM

Qu. Give the reported value of IC50 for this record: COc1ccc(COc2ccc3oc(C)c(C(=O)NC4(CO)CCOCC4)c3c2)cn1
Ans. 1000 to 20000 nM

Qu. Give the reported value of IC50 for this record: CNC(=O)C(CO)NC(=O)c1c(C)oc2ccc(OCc3ccccn3)cc12 (single isomer, unassigned) [601 - En 2]
Ans. ≤ 1000 nM

Qu. Give the reported value of IC50 for this record: Cc1oc2ccc(OCc3cccnc3C(F)(F)F)cc2c1C(=O)N(CCO)C1CCC1
Ans. 1000 to 20000 nM

Qu. Give the reported value of IC50 for this record: NC(=O)c1oc2ccc(OCc3cccnc3C(F)(F)F)cc2c1C(=O)NC1CCNCC1(F)F (single isomer, unassigned)
Ans. ≥ 20000 nM

Qu. Give the reported value of IC50 for this record: Cc1oc2ccc(OCc3ccnn3C)cc2c1C(=O)NC1COCC1O (single isomer, unassigned) [656 - En 2]
Ans. 1000 to 20000 nM

Qu. Give the reported value of IC50 for this record: Cc1oc2ccc(OCc3ccnn3C)cc2c1C(=O)NC1COCC1O (single isomer, unassigned) [656 - En 1]
Ans. 1000 to 20000 nM

Qu. Give the reported value of IC50 for this record: Cc1oc2ccc(OCc3cccnc3O)cc2c1C(=O)NC1CNCC1(F)F (single isomer, unassigned)
Ans. ≤ 1000 nM

Qu. Give the reported value of IC50 for this record: Cc1oc2ccc(OCc3ccc4nccn4c3)cc2c1C(=O)NC1(CO)CCOCC1
Ans. 1000 to 20000 nM

* * *

Target or system: mouse TRPM3a2 (mTRPM3) ion channel (Mus musculus)
Construct: expressed in transfected cells; host or cells: flip-in HEK293
Procedure details: TRPM3 ion channel driven Ca2+ uptake, Fluo-4 AM assay (PS-stimulated, overexpressing flip-in HEK293 cells)
Type: cell-based
Measurement context: PS (50 μM) stimulated, cpds. 400-499
pIC50: −log10 of the molar value.
Recorded metric: pIC50

{"Compound": "Cc1oc2ccc(OCc3nccs3)cc2c1C(=O)NC1CCN(CCO)C1=O (single isomer, unassigned) [407 - En 1]", "pIC50": "≥ 6.00"}
{"Compound": "Cc1ncc(COc2ccc3oc(C)c(C(=O)NC(CO)CN4CCOCC4)c3c2)s1 (single isomer, unassigned) [487 - En 1]", "pIC50": "4.70 to 6.00"}
{"Compound": "Cc1oc2ccc(OCc3cccnc3C(F)F)cc2c1C(=O)NC(CO)C(N)=O (single isomer, unassigned) [457 - En 1]", "pIC50": "≥ 6.00"}
{"Compound": "Cc1ncsc1COc1ccc2oc(C)c(C(=O)NC3(C)CCN(CCO)C3=O)c2c1 (single isomer, unassigned) [410 - En 2]", "pIC50": "4.70 to 6.00"}

Qu. Give the reported value of pIC50 for this record: Cc1oc2ccc(OCc3cccn(C)c3=O)cc2c1C(=O)NC1CCN(CCO)C1=O (stereo not shown) [cpd 405]
Ans. ≤ 4.70

Qu. Give the reported value of pIC50 for this record: Cc1ncsc1COc1ccc2oc(C)c(C(=O)NC(CCO)C(N)=O)c2c1 (stereo not shown) [469 - En 1]
Ans. ≥ 6.00

Qu. Give the reported value of pIC50 for this record: Cc1ncsc1COc1ccc2oc(C)c(C(=O)NC3(C)CCN(CCO)C3=O)c2c1 (single isomer, unassigned) [410 - En 1]
Ans. ≥ 6.00

* * *

Target or system: mouse TRPM3a2 (mTRPM3) ion channel (Mus musculus)
Construct: expressed in transfected cells; host or cells: flip-in HEK293
Procedure details: TRPM3 ion channel driven Ca2+ uptake, Fluo-4 AM assay (PS-stimulated, overexpressing flip-in HEK293 cells)
Type: cell-based
Measurement context: PS (50 μM) stimulated Ca2+ influx, HEK293, cpds 200-299
Recorded metric: IC50

Solved cases (2 shown):
{"Smiles text": "Cc1oc2ccc(OCc3cccnc3C(F)(F)F)cc2c1C(=O)NC1(CO)CNC1", "Target or system": "mouse TRPM3a2 (mTRPM3) ion channel (Mus musculus)", "IC50": "1 to 20 µM"}
{"Smiles text": "Cc1ncsc1COc1ccc2oc(C)c(C(=O)NC3(CO)CNC3)c2c1", "Target or system": "mouse TRPM3a2 (mTRPM3) ion channel (Mus musculus)", "IC50": "1 to 20 µM"}

Qu. Give the reported value of IC50 for this record: Cc1ncc(COc2ccc3oc(C)c(C(=O)N[C@@H](CO)C(=O)N4CCC(F)(F)C4)c3c2)s1
Ans. 1 to 20 µM

* * *

Target or system: mouse TRPM3a2 (mTRPM3) ion channel (Mus musculus)
Construct: expressed in transfected cells; host or cells: flip-in HEK293
Procedure details: TRPM3 ion channel driven Ca2+ uptake, Fluo-4 AM assay (PS-stimulated, overexpressing flip-in HEK293 cells)
Type: cell-based
Measurement context: PS (50 μM) stimulated, cpds. 400-499
pIC50: −log10 of the molar value.
Quick reference for pIC50 among some molecules

Solved cases (5 shown):
{"Molecule": "Cc1ncc(COc2ccc3oc(C)c(C(=O)N[C@@H](CO)c4nc5ccccc5[nH]4)c3c2)s1 [401 - En 1]", "pIC50": "≥ 6.00"}
{"Molecule": "Cc1oc2ccc(OCc3nccs3)cc2c1C(=O)NC1CCN(CCO)C1=O (single isomer, unassigned) [407 - En 2]", "pIC50": "4.70 to 6.00"}
{"Molecule": "Cc1oc2ccc(OCc3ccccn3)cc2c1C(=O)NC(CO)C(N)=O (stereo not shown) [455 - En 2]", "pIC50": "≥ 6.00"}
{"Molecule": "Cc1ncc(COc2ccc3oc(C)c(C(=O)NC(CN(C)C4CC4)C(N)=O)c3c2)s1 (single isomer, unassigned) [445 - En 2]", "pIC50": "4.70 to 6.00"}
{"Molecule": "COc1ncccc1COc1ccc2oc(C)c(C(=O)NC3CCN(CCO)C3=O)c2c1 (single isomer, unassigned) [409 - En 1]", "pIC50": "≥ 6.00"}

Qu. With mouse TRPM3a2 (mTRPM3) ion channel (Mus musculus) as the test system, provide measured pIC50 for this molecule: Cc1nc(C)c(COc2ccc3oc(C)c(C(=O)NC(CO)C(N)=O)c3c2)s1 (single isomer, unassigned) [458 - En 1]
Ans. ≥ 6.00

Qu. With mouse TRPM3a2 (mTRPM3) ion channel (Mus musculus) as the test system, provide measured pIC50 for this molecule: Cc1oc2ccc(OCc3ccnn3CC(F)F)cc2c1C(=O)NC(CO)C(N)=O (single isomer, unassigned) [456 - En 1]
Ans. ≥ 6.00

Qu. With mouse TRPM3a2 (mTRPM3) ion channel (Mus musculus) as the test system, provide measured pIC50 for this molecule: Cc1ncsc1COc1ccc2oc(C)c(C(=O)NC(CO)C(=O)N(C)C)c2c1 (single isomer, unassigned) [411 - En 1]
Ans. ≥ 6.00

Qu. With mouse TRPM3a2 (mTRPM3) ion channel (Mus musculus) as the test system, provide measured pIC50 for this molecule: Cc1oc2ccc(OCc3ccnn3C)cc2c1C(=O)NC1CCN(CCO)C1=O (single isomer, unassigned) [404 - En 1]
Ans. 4.70 to 6.00

Qu. With mouse TRPM3a2 (mTRPM3) ion channel (Mus musculus) as the test system, provide measured pIC50 for this molecule: Cc1ncsc1COc1ccc2oc(C)c(C(=O)NC(COC(F)F)C(N)=O)c2c1 (stereo not shown) [448 - En 1]
Ans. ≥ 6.00

Qu. With mouse TRPM3a2 (mTRPM3) ion channel (Mus musculus) as the test system, provide measured pIC50 for this molecule: Cc1ncsc1COc1ccc2oc(C)c(C(=O)NC3CCN(CCOCCO)C3=O)c2c1 (stereo not shown) [402 - En 1]
Ans. 4.70 to 6.00

Just for reference, patent US20240336602A1 is where these values come from.
